The reported numbers originate from patent US20220056037A1.

Subject of test: CDK6-CYCLIND3 (Homo sapiens)
Construct: purchased Carna
Sequence (Q00534 whole entry): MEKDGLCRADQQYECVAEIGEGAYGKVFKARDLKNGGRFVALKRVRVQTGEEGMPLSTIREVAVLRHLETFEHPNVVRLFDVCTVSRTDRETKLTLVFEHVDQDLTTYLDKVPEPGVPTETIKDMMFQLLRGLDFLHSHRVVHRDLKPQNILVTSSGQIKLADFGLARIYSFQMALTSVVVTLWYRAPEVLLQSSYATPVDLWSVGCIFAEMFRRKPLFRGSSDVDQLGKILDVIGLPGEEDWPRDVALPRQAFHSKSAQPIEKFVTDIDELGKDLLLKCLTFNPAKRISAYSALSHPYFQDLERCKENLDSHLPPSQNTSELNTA
Sequence (P30281 whole entry partner): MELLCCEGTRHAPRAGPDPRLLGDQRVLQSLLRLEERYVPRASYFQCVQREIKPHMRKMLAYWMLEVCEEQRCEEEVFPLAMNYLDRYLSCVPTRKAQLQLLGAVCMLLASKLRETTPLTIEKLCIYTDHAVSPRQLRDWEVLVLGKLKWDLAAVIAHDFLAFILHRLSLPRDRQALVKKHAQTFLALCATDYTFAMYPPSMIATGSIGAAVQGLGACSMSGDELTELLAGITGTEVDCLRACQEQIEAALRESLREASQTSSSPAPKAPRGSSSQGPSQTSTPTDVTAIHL
Assay overview: Inhibition assay, microfluidic LabChip (Nanosyn)
Assay type: biochemical
Condition notes: CDK6 IC50, Table 2; ATP 300 μM
Property measured: pIC50
One number for each entry, as −log10 of the molar value.

The reported value for CN1CCN(c2ccc(Nc3ncc4cc(C(=O)N(C)C)n(C56CC(C5)C6)c4n3)cc2)CC1 [Compound A14] in terms of pIC50 is 8.15

----------
Subject of test: CDK4-CYCLIND1 (Homo sapiens)
Construct: purchased Invitrogen
Assay overview: Inhibition assay, microfluidic LabChip (Nanosyn)
Format: biochemical
Condition notes: Table 3b; read-out: CDK4 CyclinD1 IC50
Property measured: pIC50
Answers are plain numbers, as −log10 of the molar value.

{"columns": ["Molecule", "pIC50"],
 "data": [
  ["CN1CC2(C1)CN(c1ccc(Nc3ncc4cc(C(=O)N(C)C)n(C56CC(C5)C6)c4n3)cc1)C2", 7.85],
  ["CN(C)C(=O)c1cc2cnc(Nc3ccc(N4CCNCC4)cn3)nc2n1C12CC(C1)C2", 7.80]
]}

Give pIC50 for each listed item.
1. CN1CCC(c2ccc(Nc3ncc4cc(C(=O)N(C)C)n(C56CC(C5)C6)c4n3)cc2)CC1
2. CC1CCN(c2ccc(Nc3ncc4cc(C(=O)N(C)C)n(C56CC(C5)C6)c4n3)cc2)CC1
3. CC1CN(c2ccc(Nc3ncc4cc(C(=O)N(C)C)n(C56CC(C5)C6)c4n3)cc2)CC(C)N1 (centres unmarked)

Result:
1: 8.34; 2: 7.59; 3: 7.95

Give pIC50 for each listed item.
1. Cc1cc(Nc2ncc3cc(C(=O)N(C)C)n(C45CC(C4)C5)c3n2)ccc1OCCN(C)C
2. CN(C)C(=O)c1cc2cnc(Nc3ccc(N4CC5(CNC5)C4)cc3)nc2n1C12CC(C1)C2
3. CN1CCN(c2ccc(Nc3ncc4cc(C(=O)N(C)C)n(C56CC(C5)C6)c4n3)cc2)CC1 [Compound A84]
4. CN(C)CCOc1ccc(Nc2ncc3cc(C(=O)N(C)C)n(C45CC(C4)C5)c3n2)cc1F
5. CN(C)CCOc1ccc(Nc2ncc3cc(C(=O)N(C)C)n(C45CC(C4)C5)c3n2)cc1
6. CN(C)C(=O)c1cc2cnc(Nc3ccc(N4CCNCC4)cc3)nc2n1C12CC(C1)C2
7. CN1CC2(C1)CN(c1ccc(Nc3ncc4cc(C(=O)N(C)C)n(C56CC(C5)C6)c4n3)cc1F)C2
8. CN(C)C(=O)c1cc2cnc(Nc3ccc(C4=CCNCC4)cn3)nc2n1C12CC(C1)C2

Result:
1: 7.83; 2: 7.79; 3: 8.61; 4: 8.16; 5: 8.10; 6: 8.17; 7: 7.80; 8: 7.60

molecule "CN(C)C(=O)c1cc2cnc(Nc3ccc(S(C)(=O)=O)cc3)nc2n1C12CC(C1)C2" , pIC50 observed: 7.44

----------
System: MMXF U-266
Assay overview: 2D cell proliferation assay (CellTiter-Blue)
Assay type: cell-based
Condition notes: Homo sapiens, 72 h; cell line MMXF U-266; three days of treatment; read-out: IC (abs. IC50)
Property measured: IC50
Output should be the measured figure followed by the unit it is expressed in.

Kindly note the recorded IC50 for CN1CCN(c2ccc(Nc3ncc4cc(C(=O)N(C)C)n(C56CC(C5)C6)c4n3)cc2)CC1 [SPV113] , which is 655 nM

----------
Tested on: LIXAH HLE
Assay overview: 2D cell proliferation assay (CellTiter-Blue)
Type: cell-based
Condition notes: 72 h; cell line LIXAH HLE; three days of treatment; read-out: IC (abs. IC50)
Property measured: IC50 (nM)
Numbers only, in nM.

For CN1CCN(c2ccc(Nc3ncc4cc(C(=O)N(C)C)n(C56CC(C5)C6)c4n3)cc2)CC1 [SPV113] the compound record lists IC50 as 229

----------
Subject of test: CDK4-CYCLIND1 (Homo sapiens, UniProt P11802)
Construct: purchased Invitrogen
Sequence (P11802 whole entry): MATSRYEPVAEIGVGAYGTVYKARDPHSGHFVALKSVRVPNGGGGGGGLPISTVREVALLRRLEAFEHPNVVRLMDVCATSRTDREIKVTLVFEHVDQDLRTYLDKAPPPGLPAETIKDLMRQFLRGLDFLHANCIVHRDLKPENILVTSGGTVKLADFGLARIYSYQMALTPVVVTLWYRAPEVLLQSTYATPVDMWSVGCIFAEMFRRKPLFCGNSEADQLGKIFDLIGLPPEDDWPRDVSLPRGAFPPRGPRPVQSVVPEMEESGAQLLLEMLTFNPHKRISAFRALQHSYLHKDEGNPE
Sequence (P24385 whole entry partner): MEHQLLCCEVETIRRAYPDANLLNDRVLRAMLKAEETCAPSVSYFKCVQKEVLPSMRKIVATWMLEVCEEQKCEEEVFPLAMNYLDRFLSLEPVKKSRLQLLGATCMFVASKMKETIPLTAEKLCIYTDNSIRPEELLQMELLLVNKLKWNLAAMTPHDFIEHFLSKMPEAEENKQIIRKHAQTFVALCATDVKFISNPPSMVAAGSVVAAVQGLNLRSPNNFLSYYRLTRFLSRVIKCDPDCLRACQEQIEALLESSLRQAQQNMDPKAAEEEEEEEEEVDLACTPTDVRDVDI
Assay overview: Inhibition assay, microfluidic LabChip (Nanosyn)
Format: biochemical
Condition notes: Table 3a; read-out: CDK4 CyclinD1 IC50
Protocol: The reaction was terminated by the addition of EDTA. The plates were analyzed using a Caliper LabChip 3000. Additional inhibition assays were performed as described above.
Task for the reader: assign each of the following compounds its reported IC50.
Give bare numbers, in µM.

{"columns": ["Compound", "IC50 / µM"],
 "data": [
  ["CC1CCN(c2ccc(Nc3ncc4cc(C(=O)N(C)C)n(C56CC(C5)C6)c4n3)cc2)CC1 [Compound A91]", 0.0255],
  ["CN(C)C(=O)c1cc2cnc(Nc3ccc(S(C)(=O)=O)cc3)nc2n1C12CC(C1)C2 [Compound A79]", 0.036],
  ["CN(C)C(=O)c1cc2cnc(Nc3ccc(N4CC5(CNC5)C4)cc3)nc2n1C12CC(C1)C2 [Compound A48]", 0.0164]
]}

Provide the reported IC50 of each entry below, same order.
1. CN1CC2(C1)CN(c1ccc(Nc3ncc4cc(C(=O)N(C)C)n(C56CC(C5)C6)c4n3)cc1F)C2 [Compound A70]
2. CN(C)CCOc1ccc(Nc2ncc3cc(C(=O)N(C)C)n(C45CC(C4)C5)c3n2)cc1 [Compound A60]

Result:
[0.0159, 0.0079]

----------
What pIC50 was measured for each of the following?
Subject of test: CDK7 CyclinH (Homo sapiens, UniProt P50613)
Sequence (P50613 whole entry): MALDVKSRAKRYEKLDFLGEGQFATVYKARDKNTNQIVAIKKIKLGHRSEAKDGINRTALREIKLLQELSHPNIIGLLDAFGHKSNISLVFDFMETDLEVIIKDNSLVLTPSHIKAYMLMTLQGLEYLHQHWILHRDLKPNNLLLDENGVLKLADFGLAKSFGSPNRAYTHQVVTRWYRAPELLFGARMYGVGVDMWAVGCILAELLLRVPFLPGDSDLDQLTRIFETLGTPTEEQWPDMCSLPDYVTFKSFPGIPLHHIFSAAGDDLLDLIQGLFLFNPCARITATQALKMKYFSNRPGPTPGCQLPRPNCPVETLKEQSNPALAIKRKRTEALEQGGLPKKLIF
Sequence (P51946 whole entry partner): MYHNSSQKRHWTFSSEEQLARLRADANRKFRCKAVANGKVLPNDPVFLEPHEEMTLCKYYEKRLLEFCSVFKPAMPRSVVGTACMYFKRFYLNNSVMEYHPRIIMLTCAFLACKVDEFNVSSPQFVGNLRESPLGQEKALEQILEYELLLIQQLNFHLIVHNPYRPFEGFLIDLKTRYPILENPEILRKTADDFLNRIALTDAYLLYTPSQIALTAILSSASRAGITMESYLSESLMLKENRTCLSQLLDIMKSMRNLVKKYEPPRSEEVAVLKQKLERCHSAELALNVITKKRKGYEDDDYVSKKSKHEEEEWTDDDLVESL
Sequence (P51948 whole entry partner): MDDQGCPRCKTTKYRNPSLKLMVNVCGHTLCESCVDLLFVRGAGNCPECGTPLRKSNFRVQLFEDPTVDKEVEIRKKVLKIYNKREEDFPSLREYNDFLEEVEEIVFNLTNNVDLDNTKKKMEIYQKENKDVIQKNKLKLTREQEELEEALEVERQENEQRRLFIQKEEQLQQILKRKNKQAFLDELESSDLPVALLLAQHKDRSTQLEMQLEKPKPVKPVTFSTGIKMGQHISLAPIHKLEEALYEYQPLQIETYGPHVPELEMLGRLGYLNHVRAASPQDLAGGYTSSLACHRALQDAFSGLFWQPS
Assay overview: Inhibition assay, microfluidic LabChip (Nanosyn)
Format: biochemical
Condition notes: Table 3b
Numbers only, as −log10 of the molar value.

{"columns": ["Molecule", "Property measured", "Val"],
 "data": [
  ["CN(C)C(=O)c1cc2cnc(Nc3ccc(N4CCNCC4)cn3)nc2n1C12CC(C1)C2", "pIC50", 4.56],
  ["CN(C)C(=O)c1cc2cnc(NC3CCN(S(C)(=O)=O)CC3)nc2n1C12CC(C1)C2", "pIC50", 5.09],
  ["CN(C)C(=O)c1cc2cnc(Nc3ccc(N4CCNCC4)c(F)c3)nc2n1C12CC(C1)C2", "pIC50", 5.94],
  ["CN1CCN(c2ccc(Nc3ncc4cc(C(=O)N(C)C)n(C56CC(C5)C6)c4n3)cc2)CC1 [Compound A84]", "pIC50", 5.84],
  ["CN1CCN(c2ccc(Nc3ncc4cc(C(=O)N(C)C)n(C56CC(C5)C6)c4n3)cc2)CC1 [Compound A88]", "pIC50", 5.78],
  ["CN(C)C(=O)c1cc2cnc(Nc3ccc(N4CCNCC4)cc3)nc2n1C12CC(C1)C2", "pIC50", 5.47],
  ["CN(C)CCOc1ccc(Nc2ncc3cc(C(=O)N(C)C)n(C45CC(C4)C5)c3n2)cc1F", "pIC50", 5.67],
  ["CN1CC2(C1)CN(c1ccc(Nc3ncc4cc(C(=O)N(C)C)n(C56CC(C5)C6)c4n3)cc1F)C2", "pIC50", 5.30]
]}

Please state pIC50 for every molecule in the list that follows.
1. CC1CCN(c2ccc(Nc3ncc4cc(C(=O)N(C)C)n(C56CC(C5)C6)c4n3)cc2)CC1
2. CN(C)C(=O)c1cc2cnc(Nc3ccc(N4CC5(CNC5)C4)cc3)nc2n1C12CC(C1)C2
3. Cc1cc(Nc2ncc3cc(C(=O)N(C)C)n(C45CC(C4)C5)c3n2)ccc1OCCN(C)C
4. CN1CCN(C2CCN(c3ccc(Nc4ncc5cc(C(=O)N(C)C)n(C67CC(C6)C7)c5n4)cc3F)CC2)CC1
5. CN1CCC(c2ccc(Nc3ncc4cc(C(=O)N(C)C)n(C56CC(C5)C6)c4n3)cc2)CC1

Result:
1. 5.24
2. 5.31
3. 5.58
4. 5.57
5. 5.69

----------
Subject of test: CDK7 CyclinH (Homo sapiens, UniProt P50613)
Assay overview: Inhibition assay, microfluidic LabChip (Nanosyn)
Type: biochemical
Condition notes: Table 3a
Field: IC50. Provide a value for each of the compounds that follow.
Give bare numbers, in µM.

{"columns": ["Smiles record", "IC50 / µM"],
 "data": [
  ["CN(C)CCOc1ccc(Nc2ncc3cc(C(=O)N(C)C)n(C45CC(C4)C5)c3n2)cc1", 3.42]
]}

For each of the items listed, what is its IC50?
1. CN(C)CCOc1ccc(Nc2ncc3cc(C(=O)N(C)C)n(C45CC(C4)C5)c3n2)cc1F
2. CN1CCN(C2CCN(c3ccc(Nc4ncc5cc(C(=O)N(C)C)n(C67CC(C6)C7)c5n4)cc3F)CC2)CC1
3. CC1CCN(c2ccc(Nc3ncc4cc(C(=O)N(C)C)n(C56CC(C5)C6)c4n3)cc2)CC1

Result:
2.14
2.68
5.79

----------
Subject of test: CDK4-CYCLIND1 (Homo sapiens)
Construct: purchased Invitrogen
Assay overview: Inhibition assay, microfluidic LabChip (Nanosyn)
Format: biochemical
Condition notes: Table 2; ATP 200 μM; read-out: CDK4 IC50
Property measured: pIC50
One number for each entry, as −log10 of the molar value.

Hey, can you go through the list below and give me pIC50 for every item?
1. CN(C)C(=O)c1c(F)c2cnc(Nc3ccc(N4CCNCC4)cn3)nc2n1C1CCCC1 [Compound A1]
2. CN(C)C(=O)c1cc2cnc(Nc3ccc(OCCN4CCCCC4)cn3)nc2n1C1CCCC1 [Compound A6]

Result:
[7.41, 7.82]

Each compound below has a reported value. Please supply its pIC50.
1. CN(C)C(=O)c1c(F)c2cnc(Nc3ccc(OCCN4CCCC4)c(F)c3)nc2n1C1CCCC1 [Compound A33]
2. CN(C)C(=O)c1cc2cnc(Nc3ccc(N4CCNCC4)cn3)nc2n1C12CC(C1)C2 [Compound A12]

Result:
8.00
7.91

List reported pIC50 for each of these compounds:
1. CN(C)C(=O)c1cc2cnc(Nc3ccc(N4CCNCC4)cc3)nc2n1C12CC(C1)C2 [Compound A16]
2. CN(C)C(=O)c1cc2cnc(Nc3ccc(N4CCC(N5CCOCC5)CC4)cc3)nc2n1C12CC(C1)C2 [Compound A45]
3. CN(C)C(=O)c1c(F)c2cnc(Nc3ccc(OCCN4CCCC4)nc3)nc2n1C1CCCC1 [Compound A26]
4. CN(C)C(=O)c1cc2cnc(Nc3ccc(N4CCN(C#N)CC4)cn3)nc2n1C1CCCC1 [Compound A23]
5. CN1CCN(c2ccc(Nc3ncc4cc(C(=O)N(C)C)n(C56CC(C5)C6)c4n3)nc2)CC1 [Compound A38]
6. CN(C)C(=O)c1c(F)c2cnc(Nc3cc(C(F)(F)F)c(N4CCNCC4)cn3)nc2n1C1CCCC1 [Compound A25]

Result:
[8.53, 7.53, 7.41, 7.46, 7.81, 5.64]

Consider the following items and state reported pIC50 for each.
1. CN(C)C(=O)c1cc2cnc(Nc3ccc(OCCN4CCCC4)c(F)c3)nc2n1C1CCCC1 [Compound A32]
2. CC(C)N1CCN(c2ccc(Nc3ncc4cc(C(=O)N(C)C)n(C56CC(C5)C6)c4n3)cc2)CC1 [Compound A37]
3. CC(C)N1CC=C(c2ccc(Nc3ncc4cc(C(=O)N(C)C)n(C56CC(C5)C6)c4n3)nc2)CC1 [Compound A43]
4. CN(C)C(=O)c1cc2cnc(Nc3ccc(C(=O)N4CC[C@H](N(C)C)C4)cc3)nc2n1C12CC(C1)C2 [Compound A44]
5. CN(C)C(=O)c1cc2cnc(Nc3ccc(N4CCNCC4)c(F)c3)nc2n1C12CC(C1)C2 [Compound A17]
6. CN(C)C(=O)c1cc2cnc(Nc3ccc(OCCN4CCCC4)nc3)nc2n1C1CCCC1 [Compound A8]

Result:
8.71
4.28
7.45
8.61
8.52
8.30

Note to self: pIC50 recorded for CC(C)N1CCN(c2ccc(Nc3ncc4cc(C(=O)N(C)C)n(C5CCCC5)c4n3)cc2F)CC1 [Compound A11] was 8.41
